Values were extracted from patent US9763444B2.

# Tested on: Ae. aegypti
# EXPERIMENT_SUMMARY: Minimum Effective Dosage (MED) test on treated cloth, mosquito repellency
# Type: in vivo, Aedes aegypti
# SETTINGS: Table 5; subject M4; highest dose 0.375 mg/cm2 (0.187 for 7)
Can you tell me Ae. aegypti Minimum Effective Dosage, M4 for the items I'm about to list?

Sample answers from the record:
COC(=O)c1cccc2c1C=CC(C)(C)O2 ... >0.375 mg/cm^2
COC(=O)c1ccc2c(c1)OC(C)(C)C=C2 ... >0.375 mg/cm^2

For every item in the list below, what is its measured Ae. aegypti Minimum Effective Dosage, M4?
1. CC1(C)C=Cc2c(CO)cccc2O1
2. CCN(CC)C(=O)c1cccc(C)c1 [DEET, N,N-diethyl-3-methylbenzamide, reference compound]
3. COCc1cccc2c1C=CC(C)(C)O2
4. COCCc1ccc2c(c1)C=CC(C)(C)O2
5. CC1(C)C=Cc2cc(CO)ccc2O1

## Result
1: 0.011 mg/cm^2; 2: 0.011 mg/cm^2; 3: 0.047 mg/cm^2; 4: >0.375 mg/cm^2; 5: >0.187 mg/cm^2

## Task For the molecule COC(=O)Cc1ccc2c(c1)C=CC(C)(C)O2 , what Ae. aegypti Minimum Effective Dosage, M4 is on record?
## Result >0.375 mg/cm^2

====

Can you tell me An. albimanus Minimum Effective Dosage, M10 for the items I'm about to list?
# Tested on: An. albimanus
# EXPERIMENT_SUMMARY: Minimum Effective Dosage (MED) test on treated cloth, mosquito repellency
# Assay type: in vivo, Anopheles albimanus
# SETTINGS: Table 4; subject M10; highest concentration 1.500 mg/cm^2
Give bare numbers, in mg/cm^2.

Sample answers from the record:
CCN(CC)C(=O)c1cccc(C)c1 [DEET, N,N-diethyl-3-methylbenzamide, reference compound] ... 0.023
CC1(C)C=Cc2c(CO)cccc2O1 ... 0.187

## Task For the compound COC(=O)c1ccc2c(c1)C=CC(C)(C)O2 , what An. albimanus Minimum Effective Dosage, M10 is on record?
## Result 0.750

====

# System: Ae. aegypti
# EXPERIMENT_SUMMARY: Minimum Effective Dosage (MED) test on treated cloth, mosquito repellency
# Type: in vivo, Aedes aegypti
# SETTINGS: Table 5; subject M5; highest dose 0.375 mg/cm2 (0.187 for 7)
READOUT_KIND: Ae. aegypti Minimum Effective Dosage, M5

Sample answers from the record:
CC1(C)C=Cc2cc(CO)ccc2O1 ... >0.187 mg/cm^2
CCN(CC)C(=O)c1cccc(C)c1 [DEET, N,N-diethyl-3-methylbenzamide, reference compound] ... 0.011 mg/cm^2
COCc1cccc2c1C=CC(C)(C)O2 ... 0.047 mg/cm^2
CC1(C)C=Cc2c(CO)cccc2O1 ... 0.011 mg/cm^2
COC(=O)Cc1ccc2c(c1)C=CC(C)(C)O2 ... >0.375 mg/cm^2
COC(=O)c1ccc2c(c1)OC(C)(C)C=C2 ... >0.375 mg/cm^2
COC(=O)c1cccc2c1C=CC(C)(C)O2 ... >0.375 mg/cm^2

## Task For the molecule COCCc1ccc2c(c1)C=CC(C)(C)O2 , what Ae. aegypti Minimum Effective Dosage, M5 is on record?
## Result >0.375 mg/cm^2

====

Can you tell me An. albimanus Minimum Effective Dosage, M8 for the items I'm about to list?
# Tested on: An. albimanus
# EXPERIMENT_SUMMARY: Minimum Effective Dosage (MED) test on treated cloth, mosquito repellency
# Assay type: in vivo, Anopheles albimanus
# SETTINGS: Table 4; subject M8; highest concentration 1.500 mg/cm^2
Numbers only, in mg/cm^2.

CC1(C)C=Cc2c(CO)cccc2O1 ... 0.187

Lab note: next compound to report on.
## Task Requested read-out An. albimanus Minimum Effective Dosage, M8, target or system An. albimanus, entry CCN(CC)C(=O)c1cccc(C)c1 [DEET, N,N-diethyl-3-methylbenzamide, reference compound]
## Result 0.023

====

# System: Ae. aegypti
# EXPERIMENT_SUMMARY: Minimum Effective Dosage (MED) test on treated cloth, mosquito repellency
# Format: in vivo, Aedes aegypti
# SETTINGS: Table 5; subject M8; highest dose 0.375 mg/cm2 (0.187 for 7)
Can you tell me Ae. aegypti Minimum Effective Dosage, M8 for the items I'm about to list?

Sample answers from the record:
COCCc1ccc2c(c1)C=CC(C)(C)O2 ... >0.375 mg/cm^2
CC1(C)C=Cc2c(CO)cccc2O1 ... 0.006 mg/cm^2
COC(=O)c1cccc2c1C=CC(C)(C)O2 ... >0.375 mg/cm^2
CCN(CC)C(=O)c1cccc(C)c1 [DEET, N,N-diethyl-3-methylbenzamide, reference compound] ... 0.023 mg/cm^2

For every item in the list below, what is its measured Ae. aegypti Minimum Effective Dosage, M8?
1. CC1(C)C=Cc2cc(CO)ccc2O1
2. COC(=O)Cc1ccc2c(c1)C=CC(C)(C)O2
3. COC(=O)c1ccc2c(c1)OC(C)(C)C=C2
4. COCc1cccc2c1C=CC(C)(C)O2

## Result
>0.187 mg/cm^2
>0.375 mg/cm^2
>0.375 mg/cm^2
0.187 mg/cm^2

====

# Tested on: Ae. aegypti
# EXPERIMENT_SUMMARY: Minimum Effective Dosage (MED) test on treated cloth, mosquito repellency
# Assay type: in vivo, Aedes aegypti
# SETTINGS: Table 1 preliminary assay; human subject M4; highest concentration 1.500 mg/cm^2
READOUT_KIND: Ae. aegypti Minimum Effective Dosage, M4 (mg/cm^2)
One number for each entry, in mg/cm^2.

CC1(C)C=Cc2c(CO)cccc2O1 ... 0.011

Lab note: next molecule to report on.
## Task For the molecule CCN(CC)C(=O)c1cccc(C)c1 [DEET, N,N-diethyl-3-methylbenzamide, reference compound] , what Ae. aegypti Minimum Effective Dosage, M4 is on record?
## Result 0.111

====

# System: Ae. aegypti
# EXPERIMENT_SUMMARY: Minimum Effective Dosage (MED) test on treated cloth, mosquito repellency
# Assay type: in vivo, Aedes aegypti
# SETTINGS: Table 2; human subject F1; highest concentration 1.500 mg/cm^2
So basically, if Ae. aegypti Minimum Effective Dosage, F1 comes in under 0.4 mg/cm^2 it's class 1, and if it's 0.4 mg/cm^2 or more it's class 0.

## Task Would you kindly verify if Ae. aegypti Minimum Effective Dosage, F1 of CC1(C)C=Cc2cccc(Cl)c2O1 is strictly less than 0.4 mg/cm^2?
## Result class 1

## Task And what about the compound COC(=O)c1c(Cl)ccc2c1C=CC(C)(C)O2 ?
## Result class 0

## Task And what about the compound COC(=O)Cc1ccc2c(c1)C=CC(C)(C)O2 ?
## Result class 1

## Task And what about the compound CC1(C)C=Cc2ccc(Cl)cc2O1 ?
## Result class 0

## Task And what about the compound CC1(C)C=Cc2c(CO)cccc2O1 ?
## Result class 1

====

Can you tell me An. albimanus Minimum Effective Dosage, M4 for the items I'm about to list?
# Test system: An. albimanus
# EXPERIMENT_SUMMARY: Minimum Effective Dosage (MED) test on treated cloth, mosquito repellency
# Assay type: in vivo, Anopheles albimanus
# SETTINGS: Table 4; subject M4; highest concentration 1.500 mg/cm^2
One number for each entry, in mg/cm^2.

CCN(CC)C(=O)c1cccc(C)c1 [DEET, N,N-diethyl-3-methylbenzamide, reference compound] ... 0.011
CC(=O)c1ccc2c(c1O)C=CC(C)(C)O2 ... 0.094
CC1(C)C=Cc2c(CO)cccc2O1 ... 0.047

Lab note: next compound to report on.
## Task For the compound COC(=O)c1ccc2c(c1)C=CC(C)(C)O2 , what An. albimanus Minimum Effective Dosage, M4 is on record?
## Result 0.187

====

Can you tell me An. albimanus Minimum Effective Dosage, M8 for the items I'm about to list?
# Tested on: An. albimanus
# EXPERIMENT_SUMMARY: Minimum Effective Dosage (MED) test on treated cloth, mosquito repellency
# Assay type: in vivo, Anopheles albimanus
# SETTINGS: Table 4; subject M8; highest concentration 1.500 mg/cm^2

Sample answers from the record:
COc1ccc(CO)c2c1C=CC(C)(C)O2 [Compound 4] ... >1.500 mg/cm^2
CC(=O)c1ccc2c(c1O)C=CC(C)(C)O2 [Compound 3] ... >1.500 mg/cm^2

Lab note: next compound to report on.
## Task For the compound COC(=O)c1ccc2c(c1)C=CC(C)(C)O2 [Compound 5] , what An. albimanus Minimum Effective Dosage, M8 is on record?
## Result >1.500 mg/cm^2

====

# System: Ae. aegypti
# EXPERIMENT_SUMMARY: Minimum Effective Dosage (MED) test on treated cloth, mosquito repellency
# Type: in vivo, Aedes aegypti
# SETTINGS: Table 1 preliminary assay; human subject M4; highest concentration 1.500 mg/cm^2
READOUT_KIND: Ae. aegypti Minimum Effective Dosage, M4

Sample answers from the record:
COc1ccc(CO)c2c1C=CC(C)(C)O2 ... >1.500 mg/cm^2
COC(=O)c1ccc2c(c1)C=CC(C)(C)O2 ... >1.500 mg/cm^2

Lab note: next compound to report on.
## Task For the compound CC(=O)c1ccc2c(c1O)C=CC(C)(C)O2 , what Ae. aegypti Minimum Effective Dosage, M4 is on record?
## Result >1.500 mg/cm^2
